Assayed system: human CCR2B (Homo sapiens (Human), UniProt P41597)
Sequence (P41597 other isoform, or with tags, fused parts or gaps): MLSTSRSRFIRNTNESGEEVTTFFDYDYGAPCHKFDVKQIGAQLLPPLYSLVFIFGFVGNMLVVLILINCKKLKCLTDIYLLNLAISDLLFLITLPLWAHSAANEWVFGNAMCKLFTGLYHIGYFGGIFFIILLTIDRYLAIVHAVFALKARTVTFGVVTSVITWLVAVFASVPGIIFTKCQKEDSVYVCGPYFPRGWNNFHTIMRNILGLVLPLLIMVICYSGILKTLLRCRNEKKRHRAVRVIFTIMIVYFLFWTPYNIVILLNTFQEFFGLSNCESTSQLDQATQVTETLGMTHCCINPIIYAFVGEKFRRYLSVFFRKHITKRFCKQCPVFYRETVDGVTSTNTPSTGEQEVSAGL
Test description: Inhibition of native agonist (human MCP-1)-induced intracellular calcium release, calcium flux assay in CHO cells expressing human CCR2B and Gα16
Assay type: cell-based
Stated conditions: calcium flux, human MCP-1 2 nM; read-out: hCCR2B IC50
pIC50: −log10 of the molar value.
Quick rule for you: pIC50 at 7 or higher means met, lower means not met.

Compound: C[C@@H]1COCC[C@@H]1N[C@@H]1C[C@H]2CCC[C@@]2(C(=O)N2C[C@@H]3C[C@H]2CN3c2cc(C(F)(F)F)ccn2)C1
Discrete label: met
--
Compound: CC[C@@H]1COCC[C@H]1N[C@@H]1C[C@H]2CCC[C@@]2(C(=O)N2C[C@@H]3C[C@H]2CN3c2cc(C(F)(F)F)ccn2)C1
Discrete label: met
--
Compound: CO[C@@H]1COCC[C@@H]1N(C)[C@@H]1C[C@H]2CCC[C@@]2(C(=O)N2C[C@@H]3C[C@H]2CN3c2cc(C(F)(F)F)cc(C(F)(F)F)c2)C1
Discrete label: not met

INPUT: Assess whether reported pIC50 for CO[C@@H]1COCC[C@@H]1N[C@@H]1C[C@H]2CCC[C@@]2(C(=O)N2C[C@@H]3C[C@H]2CN3c2ccc(F)c(Cl)c2)C1 sits at 7 or higher.
OUTPUT: not met
